From: patent US20240270821A1

# Target Of Assay: human glucagon receptor (human) (UniProt P47871)
# Sequence (P47871 26-477): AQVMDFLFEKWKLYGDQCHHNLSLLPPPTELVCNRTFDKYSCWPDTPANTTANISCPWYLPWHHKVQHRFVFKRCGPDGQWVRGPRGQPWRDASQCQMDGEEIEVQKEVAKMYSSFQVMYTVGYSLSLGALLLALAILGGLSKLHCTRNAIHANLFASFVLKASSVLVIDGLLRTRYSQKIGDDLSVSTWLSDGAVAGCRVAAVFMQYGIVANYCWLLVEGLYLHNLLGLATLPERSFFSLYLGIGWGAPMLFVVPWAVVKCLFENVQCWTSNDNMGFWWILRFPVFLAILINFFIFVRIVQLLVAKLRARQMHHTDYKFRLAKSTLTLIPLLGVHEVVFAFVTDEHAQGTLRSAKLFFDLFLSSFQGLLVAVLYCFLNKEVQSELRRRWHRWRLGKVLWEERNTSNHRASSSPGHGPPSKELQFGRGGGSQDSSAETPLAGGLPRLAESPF
# Protocol Summary: cell-based or functional assay
Starred links: 1 amine or outer side, 2 acyl side, 3 side chain; linkers in the order of their positions; H or OH if unused. Non-standard residues stand in square brackets, D forms with d. Groups on a side chain read outwards from the residue. No end group written: not given here. *: point of attachment. C20 diacid = O=C(O)CCCCCCCCCCCCCCCCCCC(=O)*; Phe(4-CN) = N#Cc1ccc(C[C@H](N)C(=O)O)cc1; αMePhe(2-F) = C[C@](N)(Cc1ccccc1F)C(=O)O; γGlu = O=C(O)[C@H](CCC(=O)[*:2])N[*:1]; AEEA = NCCOCCOCC(=O)O; Aib = CC(C)(N)C(=O)O
Attribute Measured: log10 of cAMP Rel EC50, nM (1% HSA) (log10 of the value in nM)
// stored as log10 of cAMP Rel EC50, nM (1% HSA) expressed in nM

[ask] Name the recorded log10 of cAMP Rel EC50, nM (1% HSA) for YXQGTFTSDXSQXLDXKAQXAFIEYLIAGGPSSGAPPPSGSEE (non-natural residues; lipidated Lys; C-terminal amide; synthetic construct; SITE 2: note = 2-Aminoisobutyric Acid; SITE 10: note = 3-(4-Pyridyl)-L-alanine; SITE 13: note = alpha-methyl-leucine; SITE 16: note = L-ornithine; SITE 17: note = Lysine is chemically modified through conjugation of the epsilon-amino group of the Lysine side chain with D-Glutami) [Example 1034] .
[reply] 3.28

[ask] Data request, read-out log10 of cAMP Rel EC50, nM (1% HSA), for YXQGTFTSDXSXXLDKKAQXAFIEYLIAGGPSSGAPPPSESE (Aib, 4Pal, Orn, αMeL, Me4Pal; acylated Lys; C-terminal amide; synthetic construct; SITE 2: note = 2-Aminoisobutyric Acid; SITE 10: note = 3-(4-Pyridyl)-L-alanine; SITE 12: note = L-ornithine; SITE 13: note = alpha-methyl-leucine; SITE 17: note = Lysine is chemically modified through conjugation of the epsilon-amino group of the Lysine side chain with (gamma-Gl)) [Example 1010]
[reply] 2.33

[ask] Entry under review: YXQGTFTSDXSQXLDXKAQXAFIEYLIEAGPSSGEPPPSGS (not fully specified; non-natural residues, (γGlu)2-C18 diacid lysine acylation, C-terminal amide; synthetic construct; SITE 2: note = 2-Aminoisobutyric Acid; SITE 10: note = 3-(4-Pyridyl)-L-alanine; SITE 13: note = alpha-methyl-leucine; SITE 16: note = L-ornithine; SITE 17: note = Lysine is chemically modified through conjugation of the epsilon-amino group of the Lysine side chain with (gamma-Gl)) [Example 1019] . Reported log10 of cAMP Rel EC50, nM (1% HSA)?
[reply] 2.76

[ask] So what does the record say about log10 of cAMP Rel EC50, nM (1% HSA) for YXQGTFTSDXSXXLDXKAQXXFIEXLLAGGPSSGAPPPSGSEE (non-natural residues; lipidated Lys (γGlu)2-C18 diacid; C-term amide; synthetic construct; SITE 2: note = 2-Aminoisobutyric Acid; SITE 10: note = 3-(4-Pyridyl)-L-alanine; SITE 12: note = L-ornithine; SITE 13: note = alpha-methyl-leucine; SITE 16: note = L-ornithine; SITE 17: note = Lysine is chemically modified through conjugation of the epsilon-amino group of the Lys) [Example 997] ?
[reply] 2.72

[ask] So what does the record say about log10 of cAMP Rel EC50, nM (1% HSA) for YXQGTXTSDYXIXLDXKAQXXFIEYLLEGGPSSGEPPPE (synthetic construct; SITE 2: note = 2-Aminoisobutyric Acid; SITE 6: note = alpha-methyl-L-phenylalanine; SITE 11: note = alpha-methyl-L-serine; SITE 13: note = alpha-methyl-leucine; SITE 16: note = L-ornithine; SITE 17: note = Lysine is chemically modified through conjugation of the epsilon-amino gr) [Example 391] ?
[reply] 2.91

[ask] Endpoint output: log10 of cAMP Rel EC50, nM (1% HSA) of Y[Aib]QGT[αMePhe(2-F)]TSDYSILLDAKAFIEYLEEGGPSSGAPPPSEG-NH2 (not fully specified (residue 17)) [Example 410] . Value?
[reply] 3.29

[ask] Bench note: what log10 of cAMP Rel EC50, nM (1% HSA) did YXQGTFTSDFSXXLDKKAQXAFIEYLLEXGPSSGXPPPSGS (acylated; synthetic construct; SITE 2: note = 2-Aminoisobutyric Acid; SITE 12: note = L-ornithine; SITE 13: note = alpha-methyl-leucine; SITE 17: note = Lysine is chemically modified through conjugation of the epsilon-amino group of the Lysine side chain with (2-[2-(2-Amino-ethoxy)-ethoxy]-acetyl)-(gamma-Glu)) [Example 239] show?
[reply] 2.84

[ask] Fill in: log10 of cAMP Rel EC50, nM (1% HSA) of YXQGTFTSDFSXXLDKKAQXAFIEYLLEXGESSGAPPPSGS (acylated; synthetic construct; SITE 2: note = 2-Aminoisobutyric Acid; SITE 12: note = L-ornithine; SITE 13: note = alpha-methyl-leucine; SITE 17: note = Lysine is chemically modified through conjugation of the epsilon-amino group of the Lysine side chain with (2-[2-(2-Amino-ethoxy)-ethoxy]-acetyl)-(gamma-Glu)) [Example 240] is ___
[reply] 2.72

[ask] Suppose we examine the binder YXQGTFTSDFSQXLDKKAQXAFIEYLLEAGPSSGAPPPSGX (synthetic construct; SITE 2: note = 2-Aminoisobutyric Acid; SITE 13: note = alpha-methyl-leucine; SITE 17: note = Lysine is chemically modified through conjugation of the epsilon-amino group of the Lysine side chain with (2-[2-(2-Amino-ethoxy)-ethoxy]-acetyl)-(gamma-Glu)-CO-(CH2) 16-CO2H; SITE 20: n) [Example 777] ; what log10 of cAMP Rel EC50, nM (1% HSA) value has been reported?
[reply] 3.12

[ask] Record request: log10 of cAMP Rel EC50, nM (1% HSA) value, item YXQGTFTSDXSQXLDKKAQXAFIEYLLAGGPSSGAPPPSGSEE (acylated lysine (γGlu)2-C18 diacid; non-natural residues; C-terminal amide; synthetic construct; SITE 2: note = 2-Aminoisobutyric Acid; SITE 10: note = 3-(4-Pyridyl)-L-alanine; SITE 13: note = alpha-methyl-leucine; SITE 17: note = Lysine is chemically modified through conjugation of the epsilon-amino group of the Lysine side chain with (gamma-Glu)2-CO-(CH2)16-CO2H; SITE 20:) [Example 1036]
[reply] 2.55

[ask] Query: log10 of cAMP Rel EC50, nM (1% HSA); subject: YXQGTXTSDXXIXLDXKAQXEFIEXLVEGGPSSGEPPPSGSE (synthetic construct; SITE 2: note = 2-Aminoisobutyric Acid; SITE 6: note = alpha-methyl-2-fluoro-L-phenylalanine; SITE 10: note = 3-(4-Pyridyl)-L-alanine; SITE 11: note = alpha-methyl-L-serine; SITE 13: note = alpha-methyl-leucine; SITE 16: note = L-ornithine; SITE 17: note = Lysine is chemically mo) [Example 752]
[reply] 2.36

[ask] Find the recorded log10 of cAMP Rel EC50, nM (1% HSA) belonging to Y[Aib]QGT[αMePhe(2-F)]TSD[Phe(4-CN)]SKLLDKIAQK([AEEA-γGlu-C20 diacid])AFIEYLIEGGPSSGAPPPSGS-NH2 [Example 363] and report it.
[reply] 3.61
